Measurement notes: in vivo
Setup conditions: rat, plasma, intravenous, 200 nmol/kg
Property: half-life (h)
Numbers only, in h.

Q. Give the measured half-life for `CCCCCC(=O)N[C@H]1CSCc2cc(CSCCNC(=O)CN3CCN(CC(=O)O)CCN(CC(=O)O)CCN(CC(=O)O)CC3)cc(c2)CSC[C@@H](C(=O)O)NC(=O)[C@H](Cc2ccccc2)NC(=O)[C@H](CCC(N)=O)NC(=O)[C@H]([C@@H](C)O)NC(=O)[C@@H]2CCCN2C(=O)[C@@H]2CCCN2C1=O`
A. 1.05

---

Tested system: Human recombinant FAP (Homo sapiens)
Measurement notes: Surface plasmon resonance (Biacore) assay
pKd: −log10 of the molar value. Numbered stars: 1 amine (or outer) side, 2 acyl side, 3 side chain; on linkers, the order of the positions; unused ones are H or OH. Bridge positions count the residues as written; N and C are the ends. Peptide text beside a SMILES is read from it. * marks the point of attachment. mXylylene = c1cc(C[*:1])cc(C[*:2])c1; Pentanesulfonyl = CCCCCS(=O)(=O)*
Consider the following molecules; for each one, report its pKd.

{"Molecule": "CCCCCS(=O)(=O)N[C@H]1CSCc2cccc(c2)CSC[C@@H](C(=O)N[C@@H](CC(=O)O)C(N)=O)NC(=O)[C@H](Cc2ccccc2)NC(=O)[C@H](CCC(N)=O)NC(=O)[C@H]([C@@H](C)O)NC(=O)[C@@H]2CCCN2C(=O)[C@@H]2CCCN2C1=O [3BP-3514] (Pentanesulfonyl-CPPTQFCD-NH2; linker 1-7 via mXylylene)", "Observed result": "> 8.00"}
{"Molecule": "CCCCCC(=O)N[C@H]1CSCc2cc(CSCCNC(=O)CN3CCN(CC(=O)O)CCN(CC(=O)O)CCN(CC(=O)O)CC3)cc(c2)CSC[C@@H](C(=O)NCCCC(=O)O)NC(=O)[C@H](Cc2ccccc2)NC(=O)[C@H](CCC(N)=O)NC(=O)[C@H]([C@@H](C)O)NC(=O)[C@@H]2CCCN2C(=O)[C@@H]2CCCN2C1", "Observed result": "> 8.00"}

Moving on to the next molecule.
Q. Give pKd for the following molecule: `CCCCCC(=O)N[C@H]1CSCc2cc(CSCCNC(=O)CC[C@@H]3C(=O)[O][Ga]([O]C(=O)CN(C)CC)[O]C(=O)CN(C)CCN3CC)cc(c2)CSC[C@@H](C(=O)O)NC(=O)[C@H](Cc2ccccc2)NC(=O)[C@H](CCC(N)=O)NC(=O)[C@H]([C@@H](C)O)NC(=O)[C@@H]2CCCN2C(=O)[C@@H]2CCCN2C1=O`
A. > 8.00

---

What IC50 was measured for each of the following?
Tested system: Human recombinant FAP (Homo sapiens)
Sequence (Q12884 1-760): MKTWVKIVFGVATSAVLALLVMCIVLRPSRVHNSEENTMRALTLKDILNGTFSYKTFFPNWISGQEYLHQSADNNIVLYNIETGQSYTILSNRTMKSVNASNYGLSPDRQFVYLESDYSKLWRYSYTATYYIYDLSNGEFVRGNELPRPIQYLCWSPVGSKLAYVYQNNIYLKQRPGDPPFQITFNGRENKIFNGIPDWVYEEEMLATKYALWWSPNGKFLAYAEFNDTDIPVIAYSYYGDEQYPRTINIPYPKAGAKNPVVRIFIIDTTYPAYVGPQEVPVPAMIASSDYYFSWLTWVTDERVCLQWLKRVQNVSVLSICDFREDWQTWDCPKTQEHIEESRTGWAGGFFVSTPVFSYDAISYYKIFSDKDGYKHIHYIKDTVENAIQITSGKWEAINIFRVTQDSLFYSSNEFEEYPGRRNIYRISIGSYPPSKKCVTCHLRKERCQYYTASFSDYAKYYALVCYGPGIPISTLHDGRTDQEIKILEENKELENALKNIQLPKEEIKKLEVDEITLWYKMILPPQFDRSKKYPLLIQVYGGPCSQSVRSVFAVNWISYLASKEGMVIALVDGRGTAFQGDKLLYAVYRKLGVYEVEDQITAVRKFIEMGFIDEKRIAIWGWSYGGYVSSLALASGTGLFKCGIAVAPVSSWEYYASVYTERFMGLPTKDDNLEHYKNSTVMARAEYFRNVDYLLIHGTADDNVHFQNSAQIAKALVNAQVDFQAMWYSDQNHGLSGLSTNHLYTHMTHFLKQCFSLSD
Measurement notes: FRET-based FAP protease activity assay
Assay type: biochemical
Set-up: purchased R&D systems 3715-SE
Setup conditions: pIC50 Category (Activity), recombinant human FAP, FRET substrate, 37° C.
Numbered stars: 1 amine (or outer) side, 2 acyl side, 3 side chain; on linkers, the order of the positions; unused ones are H or OH. Bridge positions count the residues as written; N and C are the ends. Square brackets hold non-standard residues; d marks the D form. Peptide text beside a SMILES is read from it. * marks the point of attachment. X1 = O=C(O)CN1CCN(CC(=O)O)CCN(CC(=O)N2CCN(Cc3cc(C[*:1])cc(C[*:2])c3)CC2)CCN(CC(=O)O)CC1; mXylylene = c1cc(C[*:1])cc(C[*:2])c1; Hexanoyl = CCCCCC(=O)*; GABA = NCCCC(=O)O

{"Molecule": "CCCCCC(=O)N[C@H]1CSCc2cccc(c2)CSC[C@@H](C(=O)O)NC(=O)[C@H](Cc2ccccc2)NC(=O)[C@H](CCC(=O)O)NC(=O)[C@H]([C@@H](C)O)NC(=O)[C@@H]2CCCN2C(=O)[C@@H]2CCCN2C1=O [3BP-3370] (Hexanoyl-CPPTEFC-OH; linker 1-7 via mXylylene)", "IC50": "10 to 79.4 nM"}
{"Molecule": "CSCC[C@H](NC(C)=O)C(=O)N[C@H]1CSCc2cccc(c2)CSC[C@@H](C(=O)N[C@@H](CC(=O)O)C(=O)N[C@@H](Cc2c[nH]cn2)C(=O)N[C@@H](Cc2ccccc2)C(=O)N[C@@H](C)C(=O)N[C@@H](CC(=O)O)C(N)=O)NC(=O)[C@H](Cc2ccccc2)NC(=O)[C@H](CCC(=O)O)NC(=O)[C@H]([C@@H](C)O)NC(=O)[C@@H]2CCCN2C(=O)[C@@H]2CCCN2C1=O [3BP-3197] (Ac-MCPPTEFCDHFAD-NH2; linker 2-8 via mXylylene)", "IC50": "100 to 794 nM"}
{"Molecule": "CCCCCC(=O)N[C@H]1CSCc2cc(cc(CN3CCN(C(=O)CN4CCN(CC(=O)O)CCN(CC(=O)O)CCN(CC(=O)O)CC4)CC3)c2)CSC[C@@H](C(=O)N[C@@H](CC(=O)O)C(N)=O)NC(=O)[C@H](Cc2ccccc2)NC(=O)[C@H](CCC(N)=O)NC(=O)[C@H]([C@@H](C)O)NC(=O)[C@@H]2CCCN2C(=O)[C@@H]2CCCN2C1=O [3BP-3407] (Hexanoyl-CPPTQFCD-NH2; linker 1-7 via X1)", "IC50": "< 10 nM"}

The following molecules each have a reported value; give each one's IC50.
1. CCCCCC(=O)N[C@H]1CSCc2cccc(c2)CSC[C@@H](C(=O)N[C@@H](CC(=O)O)C(=O)NCCCC(=O)N[C@@H](CCCNC(=N)N)C(N)=O)NC(=O)[C@H](Cc2ccccc2)NC(=O)[C@H](CCC(=O)O)NC(=O)[C@H]([C@@H](C)O)NC(=O)[C@@H]2CCCN2C(=O)[C@@H]2CCCN2C1=O [3BP-3300] (Hexanoyl-CPPTEFCD[GABA]R-NH2; linker 1-7 via mXylylene)
2. CSCC[C@H](NC(C)=O)C(=O)N[C@H]1CSCc2cccc(c2)CSC[C@@H](C(=O)N[C@@H](C)C(=O)N[C@@H](Cc2c[nH]cn2)C(=O)N[C@@H](Cc2ccccc2)C(=O)N[C@@H](CCCNC(=N)N)C(=O)N[C@@H](CC(=O)O)C(N)=O)NC(=O)[C@H](Cc2ccccc2)NC(=O)[C@H](CCC(=O)O)NC(=O)[C@H]([C@@H](C)O)NC(=O)[C@@H]2CCCN2C(=O)[C@@H]2CCCN2C1=O [3BP-3194] (Ac-MCPPTEFCAHFRD-NH2; linker 2-8 via mXylylene)
3. CCCCCC(=O)N[C@H]1CSCc2cccc(c2)CSC[C@@H](C(=O)N[C@@H](CCCCNC(=O)CCC(=O)NCCCOCCOCCOCCCNC(=O)CN2CCN(CC(=O)O)CCN(CC(=O)O)CCN(CC(=O)O)CC2)CC(=O)O)NC(=O)[C@H](Cc2ccccc2)NC(=O)[C@H](CCC(N)=O)NC(=O)[C@H]([C@@H](C)O)NC(=O)[C@@H]2CCCN2C(=O)[C@@H]2CCCN2C1=O [3BP-3489]

A.
["< 10 nM", "10 to 79.4 nM", "< 10 nM"]

---

Tested system: Human recombinant FAP (Homo sapiens)
Measurement notes: Surface plasmon resonance (Biacore) assay
Numbered stars: 1 amine (or outer) side, 2 acyl side, 3 side chain; on linkers, the order of the positions; unused ones are H or OH. Bridge positions count the residues as written; N and C are the ends. Peptide text beside a SMILES is read from it. * marks the point of attachment. mXylylene = c1cc(C[*:1])cc(C[*:2])c1; Hexanoyl = CCCCCC(=O)*
Property: Kd

{"Molecule": "CCCCCC(=O)N[C@H]1CSCc2cc(CSCCNC(=O)CN3CCN4CCN5CCN(CC3)CC(=O)[O][In]([O]C(=O)C4)[O]C(=O)C5)cc(c2)CSC[C@@H](C(N)=O)NC(=O)[C@H](Cc2ccccc2)NC(=O)[C@H](CCC(N)=O)NC(=O)[C@H]([C@@H](C)O)NC(=O)[C@@H]2CCCN2C(=O)[C@@H]2CCCN2C1=O [3BP-3712]", "Observed result": "< 10 nM"}
{"Molecule": "CCCCCC(=O)N[C@H]1CSCc2cc(CSCCNC(=O)COCCOCCNC(=O)CC[C@H](C(=O)O)N3CCN(CC(=O)O)CCN(CC(=O)O)CC3)cc(c2)CSC[C@@H](C(=O)O)NC(=O)[C@H](Cc2ccccc2)NC(=O)[C@H](CCC(N)=O)NC(=O)[C@H]([C@@H](C)O)NC(=O)[C@@H]2CCCN2C(=O)[C@@H]2CCCN2C1=O [3BP-4251]", "Observed result": "< 10 nM"}

Here is another molecule to look at.
Q. # lookup: Human recombinant FAP (Homo sapiens) Kd, key = CCCCCC(=O)N[C@H]1CSCc2cccc(c2)CSC[C@@H](C(=O)N[C@@H](CC(=O)O)C(N)=O)NC(=O)[C@H](Cc2ccccc2)NC(=O)[C@H](CCC(=O)O)NC(=O)[C@H]([C@@H](C)O)NC(=O)[C@@H]2CCCN2C(=O)[C@@H]2CCCN2C1=O [3BP-3288] (Hexanoyl-CPPTEFCD-NH2; linker 1-7 via mXylylene)
A. < 10 nM
